The origin of these recorded values is paper PMC13168289.

# Tested on: P. falciparum K13 mutant parasites SP045 and SP060
# procedure_summary: Growth, Resistance, and Recovery Assay (GRRA), ring-stage survival dose-response
# Type: cell-based, Plasmodium falciparum
# run_parameters: SP060 (K13 R561H, ART-R); read-out: GRRA50
experimental_endpoint: pIC50
Worth noting: pIC50 values are minus log10 of concentrations stated in mol/L.

Incoming: Please give the measured pIC50 for this molecule: O=c1c2ccc(Oc3ccc(OC(F)(F)F)cc3)cc2[nH]c2cc(Cl)cc(F)c12
Outgoing: 9.06

---

CC50 at 4 days for assorted compounds
# procedure_summary: host hepatocyte viability in the P. cynomolgi assay
# Assay type: cell-based, rhesus
# run_parameters: rhesus monkey; radical cure mode; read-out: cytotoxicity CC50
Supply the numeric figure in µM, leaving out any unit text.

compound: CO[C@@H]1[C@@H](OC)[C@H](C)[C@@](O)(CC(=O)O)O[C@H]1[C@H](C)[C@H]1O[C@@]2(CC[C@@](C)([C@H]3CC[C@@](C)([C@@H]4O[C@@H]([C@H]5O[C@](C)(O)[C@H](C)C[C@@H]5C)C[C@@H]4O[C@@H]4C[C@H](OC)[C@@H](OC)[C@H](C)O4)O3)O2)C[C@H](O)[C@H]1C [MAD, maduramicin]
CC50 at 4 days (µM): 0.36

Now for another entry.
Incoming: Please give the measured CC50 at 4 days for this compound: O=C1C(O)=C([C@H]2CC[C@H](c3ccc(Cl)cc3)CC2)C(=O)c2ccccc21 [ATV, atovaquone]
Outgoing: 3.96

---

# Tested on: P. falciparum mutant T111 lines
# procedure_summary: drug susceptibility of T111-selected cyt b mutant lines
# Assay type: cell-based, Plasmodium falciparum
# run_parameters: Plasmodium falciparum, DD2, read-out: inhibition IC50 vs P. falciparum, Dd2-B^87V-131S-140I-259L
experimental_endpoint: pIC50
Worth noting: pIC50 values are minus log10 of concentrations stated in mol/L.

given_smiles: Cc1cc(Nc2ccc(S(F)(F)(F)(F)F)cc2)n2nc(C(C)(F)F)nc2n1
assayed_system: P. falciparum mutant T111 lines
pIC50: 8.46

Now for another entry.
Incoming: Please give the measured pIC50 for this molecule: O=C1C(O)=C([C@H]2CC[C@H](c3ccc(Cl)cc3)CC2)C(=O)c2ccccc21
Outgoing: 8.00

---

# System: P. falciparum mutant T111 lines
# procedure_summary: drug susceptibility of T111-selected cyt b mutant lines
# Format: cell-based, Plasmodium falciparum
# run_parameters: Plasmodium falciparum, DD2, Supplementary Table 4; Dd2
experimental_endpoint: pIC50
Worth noting: pIC50 values are minus log10 of concentrations stated in mol/L.

molecule: CCN(CC)CCCC(C)Nc1ccnc2cc(Cl)ccc12 (stereo not drawn)
pIC50: 6.74

molecule: Clc1ccc2c(N3CCN(CCCN4CCN(c5ccnc6cc(Cl)ccc56)CC4)CC3)ccnc2c1
pIC50: 8.13

Now for another entry.
Incoming: What value of pIC50 on P. falciparum mutant T111 lines does C[C@H]1[C@@H](O)O[C@@H]2O[C@@]3(C)CC[C@H]4[C@H](C)CC[C@@H]1[C@@]24OO3 [DHA, dihydroartemisinin] have?
Outgoing: 8.77
